Entries and their MIC values follow.
- System: Staphylococcus aureus
- PROTOCOL: Minimum inhibitory concentration gainst Staphylococcus aureus by broth microdilution technique
- Format: functional

| MOLECULE | MIC |
| --- | --- |
| O=C1C2=C(SCCS2)C(=O)c2ccccc21 | > 50 µg/mL |
| Oc1ccc(O)c2c1SCCS2 | > 50 µg/mL |
| COc1ccc(NC(=O)C(C)SC2=CC(=O)c3ccccc3C2=O)cc1 (stereo unspecified) | 25 µg/mL |
| COc1ccc(NC(=O)CSC2=CC(=O)c3ccccc3C2=O)cc1 | 25 µg/mL |
| O=C(O)CSC1=CC(=O)c2c(O)ccc(O)c2C1=O | > 50 µg/mL |
| Cc1ccccc1NC(=O)CSC1=CC(=O)c2ccccc2C1=O | 12.5 µg/mL |

* * *

- Test system: Staphylococcus aureus
- PROTOCOL: Minimum inhibitory concentration gainst Staphylococcus aureus by broth microdilution technique
- Type: functional

| COMPOUND | MODIFIER | MIC, µg/mL |
| --- | --- | --- |
| O=C(CSC1=CC(=O)c2ccccc2C1=O)Nc1ccccc1 | = | 12.5 |
| Cc1ccc(NC(=O)C(C)SC2=CC(=O)c3ccccc3C2=O)cc1 (stereo unspecified) | > | 50 |
| O=C(CSC1=CC(=O)c2ccccc2C1=O)Nc1ccc([N+](=O)[O-])cc1 | = | 25 |
| O=C(CSC1=CC(=O)c2ccccc2C1=O)Nc1cccc2ccccc12 | > | 50 |
| Cc1cccc(NC(=O)C(C)SC2=CC(=O)c3ccccc3C2=O)c1 (stereo unspecified) | > | 50 |
| CC(SC1=CC(=O)c2ccccc2C1=O)C(=O)Nc1ccccc1 (stereo unspecified) | = | 25 |

* * *

- Test system: Staphylococcus aureus
- PROTOCOL: Minimum inhibitory concentration gainst Staphylococcus aureus by broth microdilution technique
- Assay type: functional
MIC overview

| COMPOUND | MIC |
| --- | --- |
| CC(SC1=CC(=O)c2ccccc2C1=O)C(=O)O (stereo unspecified) | 25 µg/mL |
| Cc1ccccc1NC(=O)C(C)SC1=CC(=O)c2ccccc2C1=O (stereo unspecified) | > 50 µg/mL |
| O=C1C=CC(=O)c2c(O)c3c(c(O)c21)SCCS3 | > 50 µg/mL |
| CC1=C(SC(C)C(=O)O)C(=O)c2ccccc2C1=O (stereo unspecified) | 25 µg/mL |
| CC(SC1=C(O)C(=O)c2ccccc2C1=O)C(=O)O (stereo unspecified) | 50 µg/mL |
| COc1ccccc1NC(=O)CSC1=CC(=O)c2ccccc2C1=O | > 50 µg/mL |
| COc1ccccc1NC(=O)C(C)SC1=CC(=O)c2ccccc2C1=O (stereo unspecified) | > 50 µg/mL |
| CC(SC1=CC(=O)c2ccccc2C1=O)C(=O)Nc1ccc([N+](=O)[O-])cc1 (stereo unspecified) | 25 µg/mL |
| CC(SC1=CC(=O)c2c(O)ccc(O)c2C1=O)C(=O)O (stereo unspecified) | > 50 µg/mL |
| CC(SC1=CC(=O)c2ccccc2C1=O)C(=O)Nc1cccc2ccccc12 (stereo unspecified) | > 50 µg/mL |
| O=C1CSc2c3c(c4ccccc4c2O1)OC(=O)CS3 | > 50 µg/mL |
